molecular target: rSol g 2.1 protein (Solenopsis geminata, UniProt A0A9E7V488); assay: Fluorescence binding assay of 1-NPN probe with rSol g 2.1 (Scatchard plots); details: pH 5.5; 50 mM Tris-HCl; ± SEM, triplicate
pKd: −log10 of the molar value.
Result Type: pKd

• c1ccc(Nc2cccc3ccccc23)cc1 = 5.32

====

Molecular target: rSol g 2.1 protein (Solenopsis geminata)
Sequence (A0A9E7V488 1-119): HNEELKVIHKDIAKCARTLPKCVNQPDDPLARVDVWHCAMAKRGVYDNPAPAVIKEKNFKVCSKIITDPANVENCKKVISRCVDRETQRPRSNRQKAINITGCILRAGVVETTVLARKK
Assay: Fluorescence binding assay of 1-NPN probe with rSol g 2.1 (Scatchard plots)
Conditions: pH 7.4; 50 mM Tris-HCl; ± SEM, triplicate
pKd: −log10 of the molar value.
Result Type: pKd

- c1ccc(Nc2cccc3ccccc23)cc1: 5.63
